method-notes: Enzyme screens for resolution of diastereomeric mixture CHLP(MEMC)/THLP(MEMC) (Example 13)
Assay type: biochemical
condition-notes: 0.050M each isomer; pH 7.0; 5 h; 5.0 to 50 mg/mL enzyme; 25° C.
Measured % de (diastereomeric excess of the cis-L-isomer) by item

[
  {
    "molecule": "protease, type XXIV: commercial enzyme preparation, source bacterial (subtil. Carlsberg) (protein, UniProt P00780 106-379, looked up) Subtilisin Carlsberg: AQTVPYGIPLIKADKVQAQGFKGANVKVAVLDTGIQASHPDLNVVGGASFVAGEAYNTDGNGHGTHVAGTVAALDNTTGVLGVAPSVSLYAVKVLNSSGSGSYSGIVSGIEWATTNGMDVINMSLGGASGSTAMKQAVDNAYAKGVVVVAAAGNSGSSGNTNTIGYPAKYDSVIAVGAVDSNSNRASFSSVGAELEVMAPGAGVYSTYPTNTYATLNGTSMASPHVAGAAALILSKHPNLSASQVRNRLSSTATYLGSSFYYGKGLINVEAAAQ",
    "meas-value": "5%"
  }
]

Now consider the entry below.
Field request: % de (diastereomeric excess of the cis-L-isomer) | item: protease, type X: commercial enzyme preparation, source B. thermoproteoliticus rokko (protein, UniProt P00800 233-548, looked up) Thermolysin: ITGTSTVGVGRGVLGDQKNINTTYSTYYYLQDNTRGNGIFTYDAKYRTTLPGSLWADADNQFFASYDAPAVDAHYYAGVTYDYYKNVHNRLSYDGNNAAIRSSVHYSQGYNNAFWNGSQMVYGDGDGQTFIPLSGGIDVVAHELTHAVTDYTAGLIYQNESGAINEAISDIFGTLVEFYANKNPDWEIGEDVYTPGISGDSLRSMSDPAKYGDPDHYSKRYTGTQDNGGVHINSGIINKAAYLISQGGTHYGVSVVGIGRDKLGKIFYRALTQYLTPTSNFSQLRAAAVQSATDLYGSTSQEVASVKQAFDAVGVK
0%

These data points were gathered from patent US5928933A.
